Hi there, I'd appreciate the recorded Dmax for every entry that follows.
assay target: L858R/T790M/C797S EGFR (Homo sapiens, UniProt P00533, C797S/L858R/T790M)
Construct: expressed in transfected cells; host or cells: H1975 clone #25 (lentiviral over-expression, endogenous EGFR knocked out by sgRNA)
Sequence (P00533 25-1210 T790M/C797S/L858R): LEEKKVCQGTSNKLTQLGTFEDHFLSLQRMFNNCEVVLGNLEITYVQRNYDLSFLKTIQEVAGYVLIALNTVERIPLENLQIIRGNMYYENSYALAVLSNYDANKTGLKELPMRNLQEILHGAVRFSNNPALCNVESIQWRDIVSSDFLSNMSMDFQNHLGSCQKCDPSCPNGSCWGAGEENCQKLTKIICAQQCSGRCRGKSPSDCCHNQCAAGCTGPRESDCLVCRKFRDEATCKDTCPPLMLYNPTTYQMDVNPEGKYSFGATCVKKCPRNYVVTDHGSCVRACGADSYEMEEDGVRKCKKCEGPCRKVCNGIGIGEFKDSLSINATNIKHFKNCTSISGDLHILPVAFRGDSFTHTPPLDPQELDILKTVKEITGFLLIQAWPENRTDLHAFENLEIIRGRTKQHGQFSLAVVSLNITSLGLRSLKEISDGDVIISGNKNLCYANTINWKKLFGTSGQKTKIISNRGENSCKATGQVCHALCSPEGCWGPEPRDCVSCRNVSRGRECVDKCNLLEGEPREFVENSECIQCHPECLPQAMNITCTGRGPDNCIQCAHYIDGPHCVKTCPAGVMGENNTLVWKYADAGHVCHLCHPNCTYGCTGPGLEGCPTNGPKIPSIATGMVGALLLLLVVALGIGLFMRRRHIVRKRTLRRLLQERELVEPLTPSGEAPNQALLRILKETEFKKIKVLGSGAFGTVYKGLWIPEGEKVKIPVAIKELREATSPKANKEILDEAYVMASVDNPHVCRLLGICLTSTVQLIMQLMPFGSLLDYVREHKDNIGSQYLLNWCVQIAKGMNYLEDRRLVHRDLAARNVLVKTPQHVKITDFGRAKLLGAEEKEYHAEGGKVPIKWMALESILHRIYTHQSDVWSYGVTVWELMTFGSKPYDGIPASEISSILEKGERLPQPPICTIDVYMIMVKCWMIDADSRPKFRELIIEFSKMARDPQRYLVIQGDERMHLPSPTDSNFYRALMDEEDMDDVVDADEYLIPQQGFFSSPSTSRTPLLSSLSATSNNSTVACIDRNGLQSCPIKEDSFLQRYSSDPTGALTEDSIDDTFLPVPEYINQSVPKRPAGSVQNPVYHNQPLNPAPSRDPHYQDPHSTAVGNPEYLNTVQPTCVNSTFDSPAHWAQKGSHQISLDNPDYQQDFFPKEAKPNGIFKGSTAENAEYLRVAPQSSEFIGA
test method notes: EGFR degradation HTRF assay in H1975-clone #25 (LTC) cells
Format: cell-based
setup conditions: NCI-H1975, H1975 # 25-LTC (L858R/T790M/C797S), 16h treatment, maximum percentage of degradation
The reply should be a number in %, with the unit left off.

Need Dmax, item `Cc1cc2cc(n1)-c1cnn(C)c1OCCC[C@@H](C)CN1/C(=N/C2=O)Nc2ccc(CN3CC4(C3)CN(C(=O)[C@@H]3CCN(c5cc(F)c([C@H]6CCC(=O)NC6=O)c(F)c5)C3)C4)cc21`
90.2

Need Dmax, item `Cc1cc2cc(n1)-c1cnn(C)c1OCCC[C@@H](C)CN1/C(=N/C2=O)Nc2ccc(N3CCN(C4CCN(c5cc(F)c([C@H]6CCC(=O)NC6=O)c(F)c5)CC4)[C@H](CO)C3)cc21`
84.2

Need Dmax, item `Cc1cc2cc(n1)-c1cnn(C)c1OCCC[C@@H](C)CN1/C(=N/C2=O)Nc2ccc(C(=O)N[C@H]3CCN(CCc4cc(F)c([C@H]5CCC(=O)NC5=O)c(F)c4)[C@@H](C)C3)cc21`
92.5

Reference source for all entries: patent US20240342292A1
